Kindly state viability, T/C for each of the entries shown.
Tested on: 313798-341-R-J2-PDC spheroids, viability
PROTOCOL DESCRIPTION: Anticancer human tumor 313798-341-R-J2-PDC patient-derived cervical squamous cell carcinoma cell line growth inhibition [PI3K]
DETAILS: second compound 3.16 µM; first compound 10 µM; stronger effect = lower value; spheroids with HUVEC and MSC
Give bare numbers, in %.

COMPOUND	NUMERIC VALUE
C=CC(=O)N1CCN(c2nc(=O)n(-c3c(C)ccnc3C(C)C)c3nc(-c4c(O)cccc4F)c(F)cc23)C(C)C1 (stereo not given) + Cc1nc(NC(=O)N2CCCC2C(N)=O)sc1-c1ccnc(C(C)(C)C(F)(F)F)c1	58.5
C#Cc1c(F)ccc2cc(O)cc(-c3ncc4c(N5CC6CCC(C5)N6)nc(OCC56CCCN5CC(F)C6)nc4c3F)c12 (stereo not given) + Cc1nc(NC(=O)N2CCCC2C(N)=O)sc1-c1ccnc(C(C)(C)C(F)(F)F)c1	44.8
CC(Cn1ccc(-c2ccc(C#N)c(Cl)c2)n1)NC(=O)c1cc(C(C)O)[nH]n1 (stereo not given) + Cc1nc(NC(=O)N2CCCC2C(N)=O)sc1-c1ccnc(C(C)(C)C(F)(F)F)c1	52.5
C[C@@H](NC(=O)c1ncnc(N)c1Cl)c1ncc(C(=O)Nc2cc(C(F)(F)F)c(Cl)cn2)s1 + CC(Nc1ncnc2nc[nH]c12)c1cc2cccc(Cl)c2c(=O)n1-c1ccccc1	96.1

Form field: viability, T/C recorded for Cn1nccc1Nc1nccc(-c2ccn(C(CO)c3ccc(Cl)c(F)c3)c(=O)c2)n1 (stereo not given) + CC(Nc1ncnc2nc[nH]c12)c1cc2cccc(Cl)c2c(=O)n1-c1ccccc1 with 313798-341-R-J2-PDC spheroids, viability (enter value)
90.6

---

Tested on: 313798-341-R-J2-PDC spheroids, viability
PROTOCOL DESCRIPTION: Anticancer human tumor 313798-341-R-J2-PDC cell line growth inhibition [PI3K];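 further: spheroids exposed to compounds for seven days; 100% = DMSO vehicle control viability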
DETAILS: second compound 10 µM; first compound 0.1 µM; stronger effect = lower value; spheroids with HUVEC and MSC
Note to self: viability, T/C under 40% means t, ties and anything higher get f.

COMPOUND	CLASS LABEL
CC(C)NCC(C(=O)N1CCN(c2ncnc3c2C(C)CC3O)CC1)c1ccc(Cl)cc1 (stereo unspecified) + Cc1nc(NC(=O)N2CCCC2C(N)=O)sc1-c1ccnc(C(C)(C)C(F)(F)F)c1	t
CNC(=O)c1ccc(N2C(=S)N(c3ccc(C#N)c(C(F)(F)F)c3)C(=O)C2(C)C)cc1F + CC(Nc1ncnc2nc[nH]c12)c1cc2cccc(Cl)c2c(=O)n1-c1ccccc1	f
CC1(C)CCC(CN2CCN(c3ccc(C(=O)NS(=O)(=O)c4ccc(NCC5CCOCC5)c([N+](=O)[O-])c4)c(Oc4cnc5[nH]ccc5c4)c3)CC2)=C(c2ccc(Cl)cc2)C1 + CC(Nc1ncnc2nc[nH]c12)c1cc2cccc(Cl)c2c(=O)n1-c1ccccc1	f
Cn1ncnc1[C@H]1c2n[nH]c(=O)c3cc(F)cc(c23)N[C@@H]1c1ccc(F)cc1 + CC(Nc1ncnc2nc[nH]c12)c1cc2cccc(Cl)c2c(=O)n1-c1ccccc1	f
CC(=O)c1c(C)c2cnc(Nc3ccc(N4CCNCC4)cn3)nc2n(C2CCCC2)c1=O + Cc1nc(NC(=O)N2CCCC2C(N)=O)sc1-c1ccnc(C(C)(C)C(F)(F)F)c1	t
CC(Cn1ccc(-c2ccc(C#N)c(Cl)c2)n1)NC(=O)c1cc(C(C)O)[nH]n1 (stereo unspecified) + CC(Nc1ncnc2nc[nH]c12)c1cc2cccc(Cl)c2c(=O)n1-c1ccccc1	f
CC1(C)CCC(Nc2ncc(C(F)(F)F)c(-c3c[nH]c4c(P(C)(C)=O)c(C#N)ccc34)n2)CN1 (stereo unspecified) + CC(Nc1ncnc2nc[nH]c12)c1cc2cccc(Cl)c2c(=O)n1-c1ccccc1	t
CCCS(=O)(=O)Nc1ccc(F)c(C(=O)c2c[nH]c3ncc(-c4ccc(Cl)cc4)cc23)c1F + Cc1nc(NC(=O)N2CCCC2C(N)=O)sc1-c1ccnc(C(C)(C)C(F)(F)F)c1	t
CCCS(=O)(=O)Nc1ccc(F)c(C(=O)c2c[nH]c3ncc(-c4ccc(Cl)cc4)cc23)c1F + CC(Nc1ncnc2nc[nH]c12)c1cc2cccc(Cl)c2c(=O)n1-c1ccccc1	f
CC(C)n1nc(-c2ccc3oc(N)nc3c2)c2c(N)ncnc21 + CC(Nc1ncnc2nc[nH]c12)c1cc2cccc(Cl)c2c(=O)n1-c1ccccc1	t

// next entry
I'd appreciate it if you could check whether Cn1ncnc1[C@H]1c2n[nH]c(=O)c3cc(F)cc(c23)N[C@@H]1c1ccc(F)cc1 + Cc1nc(NC(=O)N2CCCC2C(N)=O)sc1-c1ccnc(C(C)(C)C(F)(F)F)c1 has viability, T/C smaller than 40%.
t

---

Test system: 313798-341-R-J2-PDC spheroids, viability
PROTOCOL DESCRIPTION: Anticancer human tumor 313798-341-R-J2-PDC cell line growth inhibition [PI3K];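 further: spheroids exposed to compounds for seven days; 100% = DMSO vehicle control viability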
DETAILS: second compound 0.316 µM; first compound 1 µM; stronger effect = lower value; spheroids with HUVEC and MSC
Mark Y only for viability, T/C values smaller than 40%; exact matches and larger values are N.

COMPOUND	CLASS LABEL
Cn1nccc1Nc1nccc(-c2ccn(C(CO)c3ccc(Cl)c(F)c3)c(=O)c2)n1 (stereo not given) + COc1c(OCCCN2CCOCC2)ccc2c3n(c(=NC(=O)c4cnc(N)nc4)nc12)CCN3	Y

Report whether reported viability, T/C is lower than 40% (strictly) for C=CC(=O)N1CCN(c2nc(=O)n(-c3c(C)ccnc3C(C)C)c3nc(-c4c(O)cccc4F)c(F)cc23)C(C)C1 (stereo not given) + CC(Nc1ncnc2nc[nH]c12)c1cc2cccc(Cl)c2c(=O)n1-c1ccccc1
N

And for CC(Cn1ccc(-c2ccc(C#N)c(Cl)c2)n1)NC(=O)c1cc(C(C)O)[nH]n1 (stereo not given) + Cc1nc(NC(=O)N2CCCC2C(N)=O)sc1-c1ccnc(C(C)(C)C(F)(F)F)c1 ?
N

Next record, please: Cn1nccc1Nc1nccc(-c2ccn(C(CO)c3ccc(Cl)c(F)c3)c(=O)c2)n1 (stereo not given) + Cc1nc(NC(=O)N2CCCC2C(N)=O)sc1-c1ccnc(C(C)(C)C(F)(F)F)c1
N

Lookup CC1(C)CCC(Nc2ncc(C(F)(F)F)c(-c3c[nH]c4c(P(C)(C)=O)c(C#N)ccc34)n2)CN1 (stereo not given) + Cc1nc(NC(=O)N2CCCC2C(N)=O)sc1-c1ccnc(C(C)(C)C(F)(F)F)c1
Y

---

Test system: 313798-341-R-J2-PDC spheroids, viability
PROTOCOL DESCRIPTION: Anticancer human tumor 313798-341-R-J2-PDC cell line growth inhibition [PI3K];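 further: spheroids exposed to compounds for seven days; 100% = DMSO vehicle control viability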
DETAILS: second compound 0.00316 µM; first compound 0.01 µM; stronger effect = lower value; spheroids with HUVEC and MSC
EXPERIMENTAL ENDPOINT: viability, T/C (%)
Numbers only, in %.

COMPOUND	UNIT STRING	viability, T/C
CC(=O)c1c(C)c2cnc(Nc3ccc(N4CCNCC4)cn3)nc2n(C2CCCC2)c1=O + CC(Nc1ccc2c(c1)OCCn1cc(N3C(=O)OCC3C(F)F)nc1-2)C(N)=O	%	102
CCN1CCN(Cc2ccc(Nc3ncc(F)c(-c4cc(F)c5nc(C)n(C(C)C)c5c4)n3)nc2)CC1 + COc1c(OCCCN2CCOCC2)ccc2c3n(c(=NC(=O)c4cnc(N)nc4)nc12)CCN3	%	102

Field: viability, T/C. Fill in for each record below.
1. CCN1CCN(Cc2ccc(Nc3ncc(F)c(-c4cc(F)c5nc(C)n(C(C)C)c5c4)n3)nc2)CC1 + CC(Nc1ccc2c(c1)OCCn1cc(N3C(=O)OCC3C(F)F)nc1-2)C(N)=O
2. Cn1ncnc1[C@H]1c2n[nH]c(=O)c3cc(F)cc(c23)N[C@@H]1c1ccc(F)cc1 + COc1c(OCCCN2CCOCC2)ccc2c3n(c(=NC(=O)c4cnc(N)nc4)nc12)CCN3
3. CC(C)n1nc(-c2ccc3oc(N)nc3c2)c2c(N)ncnc21 + CC(Nc1ccc2c(c1)OCCn1cc(N3C(=O)OCC3C(F)F)nc1-2)C(N)=O
4. Cn1ncnc1[C@H]1c2n[nH]c(=O)c3cc(F)cc(c23)N[C@@H]1c1ccc(F)cc1 + CC(Nc1ccc2c(c1)OCCn1cc(N3C(=O)OCC3C(F)F)nc1-2)C(N)=O
5. CC(C)n1nc(-c2ccc3oc(N)nc3c2)c2c(N)ncnc21 + COc1c(OCCCN2CCOCC2)ccc2c3n(c(=NC(=O)c4cnc(N)nc4)nc12)CCN3

[104, 111, 92.8, 98.1, 84]

---

Tested on: 313798-341-R-J2-PDC spheroids, viability
PROTOCOL DESCRIPTION: Anticancer human tumor 313798-341-R-J2-PDC cell line growth inhibition [PI3K];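 further: spheroids exposed to compounds for seven days; 100% = DMSO vehicle control viability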
DETAILS: second compound 0.0316 µM; first compound 0.0316 µM; stronger effect = lower value; spheroids with HUVEC and MSC
For each entry below, report its viability, T/C value.
One number for each entry, in %.

Check out these entries, answers already filled in.
COMPOUND	viability, T/C (%)
CCCS(=O)(=O)Nc1ccc(F)c(C(=O)c2c[nH]c3ncc(-c4ccc(Cl)cc4)cc23)c1F + CC(Nc1ccc2c(c1)OCCn1cc(N3C(=O)OCC3C(F)F)nc1-2)C(N)=O	107
C#Cc1c(F)ccc2cc(O)cc(-c3ncc4c(N5CC6CCC(C5)N6)nc(OCC56CCCN5CC(F)C6)nc4c3F)c12 (stereo not given) + CC(Nc1ncnc2nc[nH]c12)c1cc2cccc(Cl)c2c(=O)n1-c1ccccc1	95.5
CC(=O)c1c(C)c2cnc(Nc3ccc(N4CCNCC4)cn3)nc2n(C2CCCC2)c1=O + Cc1nc(NC(=O)N2CCCC2C(N)=O)sc1-c1ccnc(C(C)(C)C(F)(F)F)c1	108
CCCS(=O)(=O)Nc1ccc(F)c(C(=O)c2c[nH]c3ncc(-c4ccc(Cl)cc4)cc23)c1F + Cc1nc(NC(=O)N2CCCC2C(N)=O)sc1-c1ccnc(C(C)(C)C(F)(F)F)c1	110
C=CC(=O)N1CCN(c2nc(=O)n(-c3c(C)ccnc3C(C)C)c3nc(-c4c(O)cccc4F)c(F)cc23)C(C)C1 (stereo not given) + CC(Nc1ccc2c(c1)OCCn1cc(N3C(=O)OCC3C(F)F)nc1-2)C(N)=O	110

Go through the list and state viability, T/C for each entry.
1. C#Cc1c(F)ccc2cc(O)cc(-c3ncc4c(N5CC6CCC(C5)N6)nc(OCC56CCCN5CC(F)C6)nc4c3F)c12 (stereo not given) + CC(Nc1ccc2c(c1)OCCn1cc(N3C(=O)OCC3C(F)F)nc1-2)C(N)=O
2. CC(C)n1nc(-c2ccc3oc(N)nc3c2)c2c(N)ncnc21 + Cc1nc(NC(=O)N2CCCC2C(N)=O)sc1-c1ccnc(C(C)(C)C(F)(F)F)c1
3. CNC(=O)c1ccc(N2C(=S)N(c3ccc(C#N)c(C(F)(F)F)c3)C(=O)C2(C)C)cc1F + CC(Nc1ncnc2nc[nH]c12)c1cc2cccc(Cl)c2c(=O)n1-c1ccccc1
4. CC1(C)CCC(CN2CCN(c3ccc(C(=O)NS(=O)(=O)c4ccc(NCC5CCOCC5)c([N+](=O)[O-])c4)c(Oc4cnc5[nH]ccc5c4)c3)CC2)=C(c2ccc(Cl)cc2)C1 + COc1c(OCCCN2CCOCC2)ccc2c3n(c(=NC(=O)c4cnc(N)nc4)nc12)CCN3
5. CC1(C)CCC(CN2CCN(c3ccc(C(=O)NS(=O)(=O)c4ccc(NCC5CCOCC5)c([N+](=O)[O-])c4)c(Oc4cnc5[nH]ccc5c4)c3)CC2)=C(c2ccc(Cl)cc2)C1 + CC(Nc1ncnc2nc[nH]c12)c1cc2cccc(Cl)c2c(=O)n1-c1ccccc1

[100, 67.5, 104, 70, 104]

I'm hoping you can list viability, T/C for every compound here, please.
1. CC1(C)CCC(CN2CCN(c3ccc(C(=O)NS(=O)(=O)c4ccc(NCC5CCOCC5)c([N+](=O)[O-])c4)c(Oc4cnc5[nH]ccc5c4)c3)CC2)=C(c2ccc(Cl)cc2)C1 + Cc1nc(NC(=O)N2CCCC2C(N)=O)sc1-c1ccnc(C(C)(C)C(F)(F)F)c1
2. CC(=O)c1c(C)c2cnc(Nc3ccc(N4CCNCC4)cn3)nc2n(C2CCCC2)c1=O + CC(Nc1ccc2c(c1)OCCn1cc(N3C(=O)OCC3C(F)F)nc1-2)C(N)=O
3. CCN1CCN(Cc2ccc(Nc3ncc(F)c(-c4cc(F)c5nc(C)n(C(C)C)c5c4)n3)nc2)CC1 + COc1c(OCCCN2CCOCC2)ccc2c3n(c(=NC(=O)c4cnc(N)nc4)nc12)CCN3

1: 102; 2: 103; 3: 77.3

Would you mind giving viability, T/C for every compound in the list below?
1. CC1(C)CCC(Nc2ncc(C(F)(F)F)c(-c3c[nH]c4c(P(C)(C)=O)c(C#N)ccc34)n2)CN1 (stereo not given) + Cc1nc(NC(=O)N2CCCC2C(N)=O)sc1-c1ccnc(C(C)(C)C(F)(F)F)c1
2. CNC(=O)c1ccc(N2C(=S)N(c3ccc(C#N)c(C(F)(F)F)c3)C(=O)C2(C)C)cc1F + COc1c(OCCCN2CCOCC2)ccc2c3n(c(=NC(=O)c4cnc(N)nc4)nc12)CCN3
3. Cn1nccc1Nc1nccc(-c2ccn(C(CO)c3ccc(Cl)c(F)c3)c(=O)c2)n1 (stereo not given) + CC(Nc1ncnc2nc[nH]c12)c1cc2cccc(Cl)c2c(=O)n1-c1ccccc1
4. CC(C)NCC(C(=O)N1CCN(c2ncnc3c2C(C)CC3O)CC1)c1ccc(Cl)cc1 (stereo not given) + CC(Nc1ccc2c(c1)OCCn1cc(N3C(=O)OCC3C(F)F)nc1-2)C(N)=O
5. CCCS(=O)(=O)Nc1ccc(F)c(C(=O)c2c[nH]c3ncc(-c4ccc(Cl)cc4)cc23)c1F + COc1c(OCCCN2CCOCC2)ccc2c3n(c(=NC(=O)c4cnc(N)nc4)nc12)CCN3

1. 64.5
2. 73.3
3. 92.4
4. 106
5. 68.7

Give me viability, T/C for each of these compounds, listed below.
1. CC(C)NCC(C(=O)N1CCN(c2ncnc3c2C(C)CC3O)CC1)c1ccc(Cl)cc1 (stereo not given) + Cc1nc(NC(=O)N2CCCC2C(N)=O)sc1-c1ccnc(C(C)(C)C(F)(F)F)c1
2. Cn1ncnc1[C@H]1c2n[nH]c(=O)c3cc(F)cc(c23)N[C@@H]1c1ccc(F)cc1 + CC(Nc1ccc2c(c1)OCCn1cc(N3C(=O)OCC3C(F)F)nc1-2)C(N)=O

1: 118; 2: 100
